tested on: HIVIIIB variant of HIV-1; assay: Virus-induced cytotoxicity assay (HIV-1-induced cell death in CEM-SS cells, XTT); format: cell-based
pEC50: −log10 of the molar value.
PARAMETER_MEASURED: pEC50

[
  {
    "COMPOUND": "CCC/C=C/C=C/C(=O)O[C@H]1/C(=C/C(=O)OC)C[C@H]2C[C@H]([C@@H](C)O)OC(=O)C[C@H](O)C[C@@H]3C[C@H](OC(C)=O)C(C)(C)[C@](O)(C[C@@H]4C/C(=C/C(=O)OC)C[C@H](/C=C/C(C)(C)[C@]1(O)O2)O4)O3",
    "ASSAY_TARGET": "HIVIIIB variant of HIV-1",
    "PARAMETER_MEASURED": "pEC50",
    "NUMERIC_VALUE": 7.59
  }
]
